- System: drug-resistant A. baumannii strains obtained from the CDC and Prevention Antimicrobial Isolate Bank
- PROTOCOL_TEXT: MIC on drug-resistant A. baumannii strains from the CDC Antimicrobial Isolate Bank
- Type: cell-based
- EXPERIMENTAL_PARAMETERS: Acinetobacter baumannii, 18 h, A. baumannii CDC AR033; 18 hours; read-out: MIC values for AR033
Examples of compounds with documented MIC follow.
# unit: µM | format: bare number

Below, each entry is followed by its recorded MIC result.
Nc1cccc2[nH]cc(/C=N/Nc3ccc(Cl)cc3)c12 [Compound 14] | 25
Clc1ccc(N/N=C/c2c[nH]c3ccc(Br)cc23)cc1 [Compound 15] | 25

Asked: Name the recorded MIC for Brc1ccc(N/N=C/c2c[nH]c3cccc(OCc4ccccc4)c23)cc1.Cl [Compound 25] .
Given back: 6

Asked: And Cl.Fc1ccc(N/N=C/c2c[nH]c3cccc(OCc4ccccc4)c23)cc1 [Compound 27] ?
Given back: 25

Asked: Try this compound next: Cl.Clc1ccc(N/N=C/c2c[nH]c3cccc(OCc4ccccc4)c23)cc1 [Compound 26]
Given back: 6

====

- System: HeLa cells
- PROTOCOL_TEXT: HeLa cell toxicity IC50 (MTT)
- Assay type: cell-based
- EXPERIMENTAL_PARAMETERS: Homo sapiens, HeLa; 10% FBS; Table 7; read-out: IC50 on HeLa in 10% FBS
We begin with a simple list: items and their reported pIC50.
Lab note — pIC50 values are minus log10 of concentrations in M.

Asked: Reported pIC50, compound "Brc1ccc(N/N=C/c2c[nH]c3cccc(OCc4ccccc4)c23)cc1.Cl" : ____
Given back: 4.52

Asked: Then this compound: "Cl.Clc1ccc(N/N=C/c2c[nH]c3cccc(OCc4ccccc4)c23)cc1"
Given back: 4.43

Asked: Queued: "Nc1cccc2[nH]cc(/C=N/Nc3ccc(Cl)cc3)c12"
Given back: 4.44

Asked: And what about the compound "Clc1ccc(N/N=C/c2c[nH]c3ccc(Br)cc23)cc1" ?
Given back: 4.68

Asked: Entry "Cl.Fc1ccc(N/N=C/c2c[nH]c3cccc(OCc4ccccc4)c23)cc1" please
Given back: 4.59

====

Measured MIC (μM) in MDR A. baumannii ATCC 1797 40% FBS, listed per entry.
- Test system: A. baumannii ATCC BAA-1797
- PROTOCOL_TEXT: MIC on A. baumannii ATCC BAA-1797
- Assay type: cell-based
- EXPERIMENTAL_PARAMETERS: 40% FBS

Example compounds with recorded MIC (μM) in MDR A. baumannii ATCC 1797 40% FBS:
CC(=O)O.Nc1ccc(N/N=C/c2c[nH]c3cccc(OCc4ccccc4)c23)cc1 | >100 µM
C(=N\Nc1ncccn1)/c1c[nH]c2cccc(OCc3ccccc3)c12.O=C(O)C(F)(F)F | >100 µM
Brc1ccc(N/N=C/c2c[nH]c3cccc(OCc4ccccc4)c23)cc1 | 50 µM

Now look at this entry.
Asked: Give the measured MIC (μM) in MDR A. baumannii ATCC 1797 40% FBS of "Cl.NCCCC(=O)Oc1cccc2[nH]cc(/C=N/Nc3ccc(F)cc3)c12" .
Given back: >100 µM

====

- System: MRSA ATCC BAA-44
- PROTOCOL_TEXT: MIC on MRSA ATCC BAA-44
- Type: cell-based, S. aureus
- EXPERIMENTAL_PARAMETERS: Staphylococcus aureus, in FBS (note in the cell, percentage not given); read-out: MIC (μM) in MRSA BAA-44
MEASURED_ATTRIBUTE: MIC

Oc1cccc2[nH]cc(/C=N/Nc3ccc(F)cc3)c12 | > 100 µM
Cl.NCCCC(=O)Oc1cccc2[nH]cc(/C=N/Nc3ccc(F)cc3)c12 | 100 µM
CCCCCC(=O)Oc1cccc2[nH]cc(/C=N/Nc3ccc(Br)cc3)c12 | > 100 µM

Next up:
Asked: I have this molecule here, "Oc1cccc2[nH]cc(/C=N/Nc3ccc(Br)cc3)c12" , and I need its recorded MIC.
Given back: > 100 µM
